// data source = patent US20150086555A1

Trimeric HA Binding: RLU values by entry
target: recombinant soluble homotrimeric HA of A/California/4/09 (H1N1) (Influenza A virus A/California/04/2009(H1N1)); assay: HA microarray, BCC supernatant; settings: remark: other sources report otherwise
metric: Trimeric HA Binding: RLU (RLU)

binder="TCN-555 (5246_L16) (antibody, V domains shown) VH: QVQLVQSGAEVKRPGSSVKVSCTASGGIFRKNAISWVRQAPGQGLEWMGGIIAVFNTANYAQKFQNRVKITADESGNTAYMELSSLTSDDTAVYYCASHPKYFYGSGSYPDFWGQGTLVTVSS VL: QSALTQPRSVSGSPGQSITISCTGGSSDIGASNSVSWYQQHPGKAPKLVIFDVTERPSGVPHRFSGSKSGNTASLTVSGLQPDDEADYFCCAYGGKYLVVFGGGTKVTVL" assay_value=44900
binder="TCN-535 (5246_P19) (antibody, V domains shown) VH: QVQLVQSGSEVKKPGTSVKVSCTASGSVFTNYGISWVRQAPGQGLEWMGGIIPLFGAAKYAQKFQGRVTITADESTKTVYMELSRLTSKDTAIYFCAKAPRVYEYYFDQWGQGTPVTVSS VL: EIVLTQSPGTLSLSPGERATLSCRASQSVSSSQLAWYQQKPGQAPRLIIYGASTRATGIPDRFSGSGSGTDFTLTIGRLEPEDFAVFFCQQYSTSPPTFGQGTKVDFK" assay_value=48600
